Listed below: remaining at 0.5 h, 1 µM values for each entry.
assay: in vitro; conditions: human, microsomes
Form entry: value (%) — number only.

# COMPOUND, MEASUREMENT
measured = [
    ("CC(C)Oc1ccc(C2CC(c3ccc(CN4CCC(C(=O)O)CC4)cc3)=NO2)cc1Cl (stereo not given)", 73.5),
    ("CC(C)(C)c1ccc(C2CC(c3ccc(CN4CC(C(=O)[O-])C4)cc3)=NO2)cc1.[Na+] (stereo not given)", 93.8),
    ("CC(C)Oc1ccc(-n2cc(-c3ccc(CN4CC(C(=O)O)C4)cc3)nn2)cc1Cl", 98.5),
    ("COC(=O)C1CN(Cc2ccc(-n3cc(-c4ccc(OC(C)C)c(Cl)c4)nn3)cc2)C1", 23.2),
]

Q: # lookup: remaining at 0.5 h, 1 µM of COC(=O)C1CN(Cc2ccc(-c3cn(-c4ccc(OC(C)C)c(Cl)c4)nn3)cc2)C1
Result: 24.1

Reference source for all entries: ChEMBL document CHEMBL5154711
